Tested on: HOP-62 NSCLC
Measurement Protocol: NCI-60 one-dose screen, 48 h
Experimental Conditions: 10 µM unless noted
About 83,000 compounds went through this panel and 20% of them were active in at least one assay; those are over-represented in the sample as a whole. Calls of active or inactive are those of the source. Rule for the calls: active = growth percent below 10; inactive = the rest.
Outcome codes: active, inactive

• CC(=O)c1cc2c(N)c(C(=O)Nc3cccc(Cl)c3)sc2nc1C = inactive
• CC1(C)CC(=O)C2=C(C1)OC1=C(C(=O)CC(C)(C)C1)C2c1ccc(OCc2cn(-c3ccc(F)cc3F)nn2)cc1 = inactive
• c1ccc(CNCCN(CCNCc2ccccn2)Cc2ccc3ccccc3c2)nc1 = active
• COc1ccc(-c2nnc(SCC(=O)Nc3ccc(C(=O)/C=C/c4ccc(Cl)cc4)cc3)o2)cc1OC = inactive
• CC(=O)c1cc2c(c(O)c1C)C(=O)C(=O)c1c(O)cccc1-2 = active
• COc1cc2ncn3c(=O)c4c5c(sc4nc3c2cc1OC)CCCCC5 = inactive
• COc1ccc(-c2nn(-c3ccc(NC(=O)Nc4ccc(Cl)c(Cl)c4)cc3)cc2-c2ccncc2)cc1Cl = inactive
• Cc1ccc[n+](CC(=O)c2cccc3ccccc23)c1 = inactive
• O=C(Nc1ccc(-n2ccc3c(NC(=O)c4ccccc4)nccc32)cc1)Nc1ccc(Cl)c(Cl)c1 = active
• COc1cc(C(=O)N2CCN(C(=O)c3cc(OC)c(OCc4ccccc4)cc3N)CC2)c(N)cc1OCc1ccccc1 = inactive
• O=C(CSc1nnc(-c2ccccc2)o1)Nc1ccc(C(=O)/C=C/c2ccccc2)cc1 = inactive
• Nn1c(SCC(=O)Nc2cc(Cl)c(Cl)cc2Cl)nnc1-c1cc(F)c(Cl)cc1Cl = inactive
• CN(C)c1ccc(/C=c2\s/c(=C\C(=O)C(C)(C)C)[nH]c2=O)cc1 = inactive
• Nc1nc(Nc2ccc(OCc3cccc(F)c3)cc2)c2c(n1)[nH]c1ccc(O)cc12 = active
• COc1ccc2c(c1)OC(N)=C(C#N)C2c1ccc(F)c(F)c1 (centres undefined) = inactive
• CCCCNc1cc(C(=O)O)cc(S(N)(=O)=O)c1Oc1ccccc1 = inactive
• O=C(Nc1ccc(-n2ccc3c(NC(=O)c4ccccc4)ncnc32)cc1)Nc1ccc(Cl)c(C(F)(F)F)c1 = inactive
• CCn1c(SC)nnc1-c1cc2c([nH]c3ccccc32)c(-c2cccc(O)c2)n1 = inactive
• CC(C)(C)NC(C1=CC(C)(C)c2ccccc2C1=O)c1ccccc1 (centres undefined) = active
• O=S(=O)(O)c1ccc(F)cc1 = inactive
• CC(C)(C)OC(=O)N1CC(Cn2cc(C(F)(F)F)c3c(Cl)ncnc32)C1 = active
• CCCCCCCCN(CCCCCCCC)CC(O)c1cc(-c2ccccc2)nc2ccc(OC)cc12 (centres undefined) = inactive
• O=C(N/N=C1\SCC(=O)N1c1ccccc1)c1cc(-c2cc3ccccc3o2)nn1-c1ccccc1 = inactive
• COc1cccc(C2CC(c3cc(OC)c(OC)c(OC)c3)=NN2)c1 (centres undefined) = inactive
• O=C(Nc1cccc(-n2ccc3c(NC(=O)c4ccccc4)nccc32)c1)Nc1cc(C(F)(F)F)cc(C(F)(F)F)c1 = inactive
• COc1ccc(-n2c(-c3ccc(NC(=O)CCCl)cc3)nnc2-c2cc(OC)c(OC)c(OC)c2)cc1 = inactive
• CCCCCCCCCCCCCCCC(=O)NS(=O)(=O)OC[C@H]1O[C@@H](n2cnc3c(N)ncnc32)[C@H](O)[C@@H]1O = active
• CC(=O)c1ccc2c(c1)C1C=CCC1[C@H](c1cc3c(cc1Br)OCO3)N2 (some centres undefined) = inactive
• O=C(Nc1ccccc1Cl)c1c[nH]c(=O)c(-c2ccc(N3CCCOC4(CC4)C3)cc2)c1 = inactive
• CC(CN(C)C)CN1c2ccccc2CCc2ccccc21 (centres undefined) = inactive
• Cc1nc(-c2ccc(Cl)cc2)ccc1NC(=O)Nc1cccc(C(F)(F)F)c1 = inactive
• O=c1c2ccccc2sc2c(NCCN3CCOCC3)nc3ccccc3c12 = inactive
• CC(C)(c1ccc(OCC(O)CNCc2ccco2)cc1)c1ccc(OCC(O)CNCc2ccco2)cc1 (centres undefined) = inactive
• Cc1ccc(/C=C2/C(=O)Nc3cc(Cl)c(-c4csc(N)n4)cc32)cc1 = inactive
• CCNC(=O)Oc1ccc(/C(=C(/CC)Cc2ccccc2)c2ccc(OCCN3CCOCC3)cc2)cc1 = inactive
• COc1ccc(C(=O)NC(=O)Nc2ccc3c(c2)NC(=O)/C3=C\c2[nH]c(C)c(CCC(=O)O)c2C)c(F)c1 = inactive
• Nc1n[nH]c2cccc(C#Cc3cccc(NC(=O)c4cccc(C(F)(F)F)c4)c3)c12 = inactive
• O=C1C(Cl)=C(Nc2cccc3cc4ccccc4nc23)C(=O)c2ccccc21 = inactive
• CCNc1cc(S(=O)(=O)O)ccc1C = inactive
